This collection of values is drawn from patent US4263318A.

For each entry below, report its LD50 value.
TEST_PROTOCOL: Mammalian toxicity, oral, Swiss white mice
Type: in vivo
TEST_CONTEXT: mouse, in vivo; oral, corn oil carrier; read-out: Mice LD50
// units = mg/kg; emit number, no label

Ask | Look up LD50 for this compound: CCCCCCOS(=O)N(C)C(=O)Oc1cccc2c1OC(C)(C)C2 (centres unmarked) [Example I]
Reply | 280

Ask | Look up LD50 for this compound: CCCCCCCCCCOS(=O)N(C)C(=O)ON=CC(C)(C)SC (centres unmarked) [XII]
Reply | 60

Ask | Look up LD50 for this compound: CN(C(=O)Oc1cccc2c1OC(C)(C)C2)S(=O)OC(C)(C)C (centres unmarked) [II]
Reply | 40

Ask | Look up LD50 for this compound: CCCCOS(=O)N(C)C(=O)Oc1cccc2c1OC(C)(C)C2 (centres unmarked) [III]
Reply | 160

Ask | Look up LD50 for this compound: Cc1cccc(C)c1OS(=O)N(C)C(=O)Oc1cccc2c1OC(C)(C)C2 (centres unmarked) [V]
Reply | 100

Ask | Look up LD50 for this compound: CC(C)Oc1ccccc1OC(=O)N(C)S(=O)OC(C)(C)C (centres unmarked) [IX]
Reply | 400

Ask | Look up LD50 for this compound: CN(C(=O)Oc1cccc2c1OC(C)(C)C2)S(=O)Oc1ccccc1 (centres unmarked) [IV]
Reply | 42

Ask | Look up LD50 for this compound: CCCCCCOS(=O)N(C)C(=O)ON=C(C)SC (centres unmarked) [X]
Reply | 260

* * *

TEST_PROTOCOL: Mammalian toxicity, oral, Swiss white mice
Format: in vivo
TEST_CONTEXT: mouse, in vivo, po; comparison value for parent aldicarb; read-out: LD50 (parent carbamate aldicarb, mammalian toxicity, text)
ENDPOINT_NAME: LD50

Ask | Look up LD50 for this compound: CNC(=O)O/N=C/C(C)(C)SC [aldicarb, reference compound]
Reply | 0.3 to 0.5 mg/kg

* * *

For each entry below, report its LD50 value.
TEST_PROTOCOL: Mammalian toxicity, oral, Swiss white mice
Format: in vivo
TEST_CONTEXT: mouse, in vivo; oral, corn oil carrier; read-out: Mice LD50

Ask | Look up LD50 for this molecule: CCCCCCOS(=O)N(C)C(=O)Oc1cccc(C(C)C)c1 (stereo not drawn)
Reply | > 1000 mg/kg

Ask | Look up LD50 for this molecule: CCCCCCOS(=O)N(C)C(=O)Oc1ccccc1OC(C)C (stereo not drawn)
Reply | > 1000 mg/kg

Ask | Look up LD50 for this molecule: CCCCCCOS(=O)N(C)C(=O)Oc1cccc2ccccc12 (stereo not drawn)
Reply | > 1000 mg/kg
